System: SK-MEL-2 melanoma
Assay Overview: NCI tumour cell line growth inhibition, 48 h
Here, each record is paired with measured GI50 data.
Value Type: GI50

In [3]: df
Out[3]:
                                   compound  value_observed
0  CC1=C/C=C/C(=O)O[C@@H]([C@H](C)[C@H](O)[C@@H](C)NC(=O)C(C)C)[C@H](C)/C=C/C(C)=C/[C@H]2C=CCC[C@@]2(C)\C=C\1         6.98 µM
1  CN1CCN(C(=O)[C@@]2(C)CC[C@]3(C)CC[C@]4(C)C(=CC[C@@H]5[C@@]6(C)CCC(=O)NC(C)(C)[C@@H]6CC[C@]54C)[C@@H]3C2)CC1         1.94 µM
2  CS(=O)(=O)N1CCC(n2c(=O)c(Oc3ccc(F)cc3F)cc3cnc(NC4CCOCC4)nc32)CC1         > 25 µM
3  COc1ccc2c(c1)N(Cc1ccc(Cl)cc1)CCC2N1CCCC1=O (centres undefined)            6 µM
4            O=C([O][Hg][c]1ccccc1)c1ccccc1         1.35 µM
5  Oc1c(C(Nc2ccccn2)c2cccc(Oc3ccccc3)c2)ccc2cccnc12 (centres undefined)         1.68 µM
6  CN1CC=C(c2cc(NC(=O)Nc3ccc(Oc4ccnc(NC(=O)C5CC5)c4)c(F)c3)cc(C(F)(F)F)c2)CC1         1.13 µM
7  O=[N+]([O-])c1ccc(/C=C/c2nc3ccc(Cl)cc3[nH]2)cc1        > 100 µM
8          CCC(C)(C)c1cc(O)c(C(C)(C)CC)cc1O         1.85 µM

----------
Test system: HCC-2998 colon
Assay Overview: NCI tumour cell line growth inhibition, 48 h
Value Type: GI50

                                   compound  value_type  value_observed
0  COc1ccc2c(c1)N(Cc1ccc(Cl)cc1)CCC2N1CCCC1=O (stereo not given)        GI50         5.32 µM
1  COc1ccc(/C=C/C(=O)c2c(O)ccc3c(C)c(C(=O)O)oc23)cc1        GI50         36.7 µM
2  CS(=O)(=O)N1CCC(n2c(=O)c(Oc3ccc(F)cc3F)cc3cnc(NC4CCOCC4)nc32)CC1        GI50         > 25 µM
3  N#Cc1c(NCc2ccccc2)nc(NCc2ccccc2)c(C#N)c1-c1ccc(Cl)cc1        GI50        > 100 µM
4  O=C(c1ccccc1)C(Cl)C(Cl)c1ccccc1 (stereo not given)        GI50            2 µM

----------
Tested on: HOP-62 NSCLC
Assay Overview: NCI tumour cell line growth inhibition, 48 h
Each record here notes measured TGI.

Compound	TGI
CCOC(=O)/C=C/C(=O)O/C=C/[N+](=O)[O-]	> 100 µM
Cn1c(-c2ccc[se]2)ccc1-c1ccc(C=O)[se]1	35.3 µM
O=C(c1ccccc1)N1CCN(C(=S)NC2CCCCC2)C1=S	37.3 µM
CCc1ccccc1NC(=O)C(=O)C(C#N)c1ccccc1Cl (stereo unspecified)	> 100 µM
COC1/C=C/C=C(/C)Cc2cc(O)c(Cl)c(c2)N(C)C(=O)CC(OC(=O)C(C)C)C2(C)OC2C(C)C2CC1(O)NC(=O)O2 (stereo unspecified)	> 100 µM
C=C(C)[C@@H](O)[C@H](O)C[C@H](C)C1CC[C@]2(C)C1=CC[C@@H]1[C@@]3(C)CC[C@@H](OC(C)=O)C(C)(C)[C@@H]3C[C@@H](OC3OC(COC(C)=O)C(O)C(O)C3O)[C@]12C (stereo partly specified)	10.1 µM
COC(=O)Oc1nn(C(=O)OC)c(=O)c2ccccc12	> 100 µM
CC(C)(C)COC(=O)C(C)(C)NC(=O)C(CC(=O)OCc1ccccc1)NC(=O)OCc1ccccc1 (stereo unspecified)	> 100 µM
Cc1cc2cc3cc(C)c(N)cc3nc2cc1N	1.32 µM
O=C(NC(=S)Nc1ccc([N+](=O)[O-])cc1)c1ccc2c(c1)Sc1ccccc1O2	> 100 µM
C/C(CCn1[nH]c(=O)ccc1=O)=N\NC(=O)C(N)=O	> 100 µM
COc1ccc(Nc2nc3cc(C(F)(F)F)ccc3nc2-c2ccccc2)cc1OC	39.3 µM
COc1ccccc1NC(=S)N=Nc1c(O)[nH]c2ccccc12	> 100 µM
CN(C)C(=O)Oc1c(Br)cc(Br)cc1C(=O)OCc1ccccc1	> 71.2 µM
CC1(C)OC[C@H](C(=N)OCc2ccccc2)O1	> 100 µM
CN1CCN(Cc2ccc(NC(=O)c3cncc(C#Cc4c(N)ncc5ccc(C#N)cc45)c3)cc2C(F)(F)F)CC1	1.92 µM
CCn1c2nc(=O)n(CCCCCCCCSC(c3ccccc3)(c3ccccc3)c3ccccc3)c(=O)c-2nc2ccccc21	> 100 µM
CCc1cc(C)cc2[n+]1CC=C2	51.3 µM
CCc1ccccc1NC(=O)C(C#N)C1=C(Cl)C(=O)c2ccccc2C1=O (stereo unspecified)	43.4 µM
OCc1ccc(-c2csc(-c3ccc(CO)o3)c2)o1	> 100 µM
CNS(=O)(=O)OCC1OC(n2cnc3cncnc32)C(O)C1O (stereo unspecified)	> 100 µM

----------
Test system: HT29 colon
Assay Overview: NCI tumour cell line growth inhibition, 48 h
Classify by measured TGI: Yes if it is equal to or exceeds 9 µM, No if it is smaller.

>>> print(df.to_string())
                                   compound  classification
0  C[C@@H](N)COc1ccc(-c2cnc3ccc(N[C@H](C)c4cccc(F)c4)nn23)cc1              No
1  COc1ccc2c(c1)[n+]([O-])c(-c1cccc(Cl)c1)c(N)[n+]2[O-]             Yes
2       N#CC(C#N)=CNCCN1CCN(C=C(C#N)C#N)CC1             Yes
3              CCCCCCCCCCNCCSSCc1ccc(Cl)cc1              No
4  COC(=O)Cc1c([C@@]2(C)CCCC(C)(C)C2)ccc2c1C(=O)OC2             Yes
5  COc1ccc2nc3c([N+](=O)[O-])ccc(NCCN(C)C)c3c(N)c2c1              No
6  Cc1ccc([P+](Cc2ccccc2)(c2ccccc2)c2ccccc2)cc1             Yes
7  N/C=N/S(=O)(=O)c1ccc(NC(=O)COC(=O)c2cccc3c(=O)c4ccccc4[nH]c23)cc1             Yes
8  Cc1c(Cc2ccccc2)n(C(C)OCCN(OC(=O)Oc2ccccc2)C(=O)Oc2ccccc2)c(=O)[nH]c1=O (stereo not given)             Yes
